- Tested System: Recombinant Cat D (Homo sapiens (Human), UniProt P07339)
- Sequence (P07339 65-412): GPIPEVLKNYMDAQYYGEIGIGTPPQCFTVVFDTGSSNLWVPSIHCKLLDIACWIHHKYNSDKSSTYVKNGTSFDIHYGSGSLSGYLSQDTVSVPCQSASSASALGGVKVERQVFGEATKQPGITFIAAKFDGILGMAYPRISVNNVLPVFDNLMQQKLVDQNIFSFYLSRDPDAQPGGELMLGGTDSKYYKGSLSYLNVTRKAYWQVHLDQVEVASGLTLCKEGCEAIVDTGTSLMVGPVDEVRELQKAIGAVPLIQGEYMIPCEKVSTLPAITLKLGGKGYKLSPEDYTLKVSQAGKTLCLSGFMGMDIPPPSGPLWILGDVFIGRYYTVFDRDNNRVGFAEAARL
- Measurement Notes: In vitro enzymatic Cathepsin D (Cat D) FRET assay
- Assay type: biochemical
- Condition Notes: read-out: IC50 IP (μM) CatD
Observable: IC50

> print(dat)
                                   molecule                             tested.system  observable  observed.result
1  C#C[C@H](C)Oc1cnc2c(Nc3cc(F)c(F)c([C@@]4(C)N=C(N)S[C@@]5(C(=O)N(C)C)C[C@H]54)c3)nccc2n1  Recombinant Cat D (Homo sapiens (Human), UniProt P07339)        IC50         > 400 µM
2  COC(=O)c1cc(NC(=O)c2ccc(Cl)cn2)cc([C@@]2(C)N=C(N)S[C@@]3(C(=O)OC)C[C@H]32)c1F  Recombinant Cat D (Homo sapiens (Human), UniProt P07339)        IC50         > 400 µM
3  [2H]C([2H])([2H])OC[C@]12C[C@H]1[C@@](C)(c1cc(Nc3ncnc4cc(Cl)cnc34)cnc1F)N=C(N)S2  Recombinant Cat D (Homo sapiens (Human), UniProt P07339)        IC50          1680 µM
4  C#CCOc1ccc(C(=O)Nc2cc(F)c(F)c([C@@]3(C)N=C(N)S[C@@]4(S(C)(=O)=O)C[C@H]43)c2)nc1  Recombinant Cat D (Homo sapiens (Human), UniProt P07339)        IC50         > 133 µM
5  COC[C@]12C[C@H]1[C@@](C)(c1cc(NC(=O)c3cnc(OCC(F)(F)F)cn3)cc(C)c1F)N=C(N)S2  Recombinant Cat D (Homo sapiens (Human), UniProt P07339)        IC50          1580 µM
6  COc1ncc(Nc2nccc3nc(OCc4ncco4)cnc23)cc1[C@@]1(C)N=C(N)S[C@@]2(CF)C[C@H]21  Recombinant Cat D (Homo sapiens (Human), UniProt P07339)        IC50          1080 µM
7  Cc1nnc(COc2cnc3c(Nc4cc(F)c(F)c([C@@]5(C)N=C(N)S[C@@]6(C(F)F)C[C@@H]56)c4)nccc3n2)s1  Recombinant Cat D (Homo sapiens (Human), UniProt P07339)        IC50           306 µM
8  C#CCOc1cnc(C(=O)Nc2cc(F)c(F)c([C@@]3(C)N=C(N)S[C@@]4(C(=O)NC)C[C@H]43)c2)cn1  Recombinant Cat D (Homo sapiens (Human), UniProt P07339)        IC50          79.4 µM

State the recorded IC50 for every item in the following list.
1. Cc1nc(COc2cnc3c(Nc4ccc(F)c([C@@]5(C)N=C(N)S[C@@]6(CF)C[C@H]65)c4)nccc3n2)no1
2. COC[C@]12C[C@H]1[C@@](C)(c1cc(NC(=O)c3cnc(OCc4nc(C)no4)cn3)cc(F)c1F)N=C(N)S2
3. Cc1nc(OCc2ncco2)cnc1C(=O)Nc1ccc(F)c([C@@]2(C)N=C(N)S[C@@]3(C(F)F)C[C@@H]23)c1

Found:
995 µM
2560 µM
> 400 µM

State the recorded IC50 for every item in the following list.
1. C[C@]1(c2cc(Nc3ncnc4cc(C#N)cnc34)ccc2F)N=C(N)S[C@]2(CO)[C@H]1C2(F)F
2. CC(C)(C)NC(=O)[C@]12C[C@H]1[C@@](C)(c1cc(NC(=O)c3ccc(Cl)cn3)ccc1F)N=C(N)S2
3. COC[C@]12C[C@H]1[C@@](C)(c1cc(NC(=O)c3cnc(OCC(F)F)cn3)cc(F)c1F)N=C(N)S2
4. COC[C@]12C[C@H]1[C@@](C)(c1cc(NC(=O)c3cnc(OCc4ncco4)cn3)cc(C)c1F)N=C(N)S2
5. C[C@]1(c2cc(Nc3ncnc4cc(OCc5ncco5)cnc34)cnc2F)N=C(N)S[C@@]2(CF)C[C@H]21
6. C#CCOc1cnc(C(=O)Nc2cc(F)c(F)c([C@@]3(C)N=C(N)S[C@@]4(C(=O)OC)C[C@H]43)c2)cn1
7. C[C@]1(c2cc(NC(=O)c3cnc(OCC(F)(F)F)cn3)ccc2F)N=C(N)S[C@@]2(C(=O)NC3CC3(F)F)C[C@H]21 (stereo partly shown)
8. C#CCOc1cnc(C(=O)Nc2cc(F)c(F)c([C@@]3(C)N=C(N)S[C@@]4(C(F)F)C[C@@H]34)c2)c(C)n1

Found:
["340 µM", "147 µM", "1700 µM", "1430 µM", "1290 µM", "212 µM", "175 µM", "146 µM"]

State the recorded IC50 for every item in the following list.
1. C#CCOc1cnc2c(Nc3cc(F)c(F)c([C@@]4(C)N=C(N)S[C@@]5(CF)C[C@H]54)c3)nccc2n1
2. Cc1cc(OCc2ncco2)cnc1C(=O)Nc1ccc(F)c([C@@]2(C)N=C(N)S[C@@]3(C(F)F)C[C@@H]23)c1
3. COC[C@H](C)Oc1cnc(C(=O)Nc2ccc(F)c([C@@]3(C)N=C(N)S[C@@]4(COC)C[C@H]43)c2)cn1

Found:
1. 122 µM
2. 434 µM
3. > 400 µM
